Data credit: the supplement of paper PMC9112550

System: Escherichia coli TOP10
assay-comment: shrunken log2 fold change of peptide-encoding DNA abundance (4.5 h post-induction vs induction); higher = less antimicrobial activity (less host growth inhibition)
assay-setup: time post-induction: 4.5 h; library: site-saturation at positions 5, 18, 19, 20
Here, each record is paired with measured shrunken log2 fold change data.
# print the numeric value only

>  <residue-string>
RRIRPRPPRLPRPRPRPDIMPRP

>  <shrunken log2 fold change>
-0.0454

$$$$
>  <residue-string>
RRIRVRPPRLPRPRPRPYCFPRP

>  <shrunken log2 fold change>
-0.736

$$$$
>  <residue-string>
RRIRHRPPRLPRPRPRPQMQPRP

>  <shrunken log2 fold change>
-0.0236

$$$$
>  <residue-string>
RRIRHRPPRLPRPRPRPIDPPRP

>  <shrunken log2 fold change>
0.0865

$$$$
>  <residue-string>
RRIRQRPPRLPRPRPRPEMTPRP

>  <shrunken log2 fold change>
0.0231

$$$$

What value of measured shrunken log2 fold change is listed for RRIRQRPPRLPRPRPRPINPPRP ?
-0.357

Would you kindly repeat that for RRIRQRPPRLPRPRPRPQTFPRP ?
0.028

Would you kindly repeat that for RRIRARPPRLPRPRPRPEEQPRP ?
1.97

Would you kindly repeat that for RRIRDRPPRLPRPRPRPPCYPRP ?
-0.0706

Would you kindly repeat that for RRIRDRPPRLPRPRPRPSIEPRP ?
0.089

====

Tested on: Escherichia coli TOP10
assay-comment: shrunken log2 fold change of peptide-encoding DNA abundance (4.5 h post-induction vs induction); higher = less antimicrobial activity (less host growth inhibition)
assay-setup: time post-induction: 4.5 h; library: site-saturation at positions 5, 18, 19, 20
metric-name: shrunken log2 fold change
# print the numeric value only

Sample records with shrunken log2 fold change:
>  <residue-string>
RRIRPRPPRLPRPRPRPGNCPRP

>  <shrunken log2 fold change>
-0.0898

$$$$
>  <residue-string>
RRIRGRPPRLPRPRPRPTQRPRP

>  <shrunken log2 fold change>
0.739

$$$$

What value of measured shrunken log2 fold change is listed for RRIRERPPRLPRPRPRPCIMPRP ?
-0.397

Would you kindly repeat that for RRIRTRPPRLPRPRPRPQLKPRP ?
0.0828

Would you kindly repeat that for RRIRNRPPRLPRPRPRPEHAPRP ?
0.0107

Would you kindly repeat that for RRIRTRPPRLPRPRPRPEFTPRP ?
0.016

Would you kindly repeat that for RRIRWRPPRLPRPRPRPCLDPRP ?
-0.0586

====

Tested on: Escherichia coli TOP10
assay-comment: shrunken log2 fold change of peptide-encoding DNA abundance (4.5 h post-induction vs induction); higher = less antimicrobial activity (less host growth inhibition)
assay-setup: time post-induction: 4.5 h; library: site-saturation at positions 5, 18, 19, 20
metric-name: shrunken log2 fold change
# print the numeric value only

Sample records with shrunken log2 fold change:
>  <residue-string>
RRIRQRPPRLPRPRPRPYELPRP

>  <shrunken log2 fold change>
-0.695

$$$$
>  <residue-string>
RRIRYRPPRLPRPRPRPLVEPRP

>  <shrunken log2 fold change>
-0.234

$$$$

What value of measured shrunken log2 fold change is listed for RRIRWRPPRLPRPRPRPARRPRP ?
0.495

====

Tested on: Escherichia coli TOP10;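 further: peptides expressed intracellularly from a pBAD plasmid library in pooled LB shake-flask culture, induced with 0.3% L-arabinose, DNA abundance read by NGS, three biological replicates, DESeq2 with apeglm shrinkage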
assay-comment: shrunken log2 fold change of peptide-encoding DNA abundance (4.5 h post-induction vs induction); higher = less antimicrobial activity (less host growth inhibition)
assay-setup: time post-induction: 4.5 h; library: site-saturation at positions 5, 18, 19, 20
metric-name: shrunken log2 fold change
# print the numeric value only

What value of measured shrunken log2 fold change is listed for RRIRLRPPRLPRPRPRPANAPRP ?
0.0811

Would you kindly repeat that for RRIRCRPPRLPRPRPRPMYIPRP ?
-0.675

Would you kindly repeat that for RRIRYRPPRLPRPRPRPFRMPRP ?
-0.0929

Would you kindly repeat that for RRIRRRPPRLPRPRPRPQEGPRP ?
-0.0768
